Experiment notes: Toxicokinetics in 13-week topical ocular dog study
Settings: male, beagle, in vivo, topical or ocular, 30 mg/mL/occasion, male dogs, 30 mg/mL, 6 daily doses, Week 4, read-out: AUC0-1
Measure: AUC(0-t) (ng·h/mL)

>  <Molecule>
Cc1ccccc1OCC(=O)N[C@@H](CC(C)C)C(=O)N[C@@H](Cc1ccc(OC(=O)N2CCC(C(N)=O)CC2)cc1)C(=O)O [GW559090]

>  <Observed result>
2.27

$$$$

* * *

Experiment notes: Toxicokinetics in 13-week topical ocular dog study
Settings: female, beagle, in vivo, topical or ocular, 50 mg/mL/occasion, female dogs, 50 mg/mL, 6 daily doses, Week 4, read-out: AUC0-24

>  <Smiles input>
Cc1ccccc1OCC(=O)N[C@@H](CC(C)C)C(=O)N[C@@H](Cc1ccc(OC(=O)N2CCC(C(N)=O)CC2)cc1)C(=O)O

>  <AUC(0-t) (ng·h/mL)>
31.6

$$$$

* * *

Experiment notes: Toxicokinetics in 13-week topical ocular dog study
Settings: male, beagle, in vivo, topical or ocular, 30 mg/mL/occasion, male dogs, 30 mg/mL, 6 daily doses, Week 13, read-out: AUC0-1

>  <Compound>
Cc1ccccc1OCC(=O)N[C@@H](CC(C)C)C(=O)N[C@@H](Cc1ccc(OC(=O)N2CCC(C(N)=O)CC2)cc1)C(=O)O [GW559090]

>  <Unit spec>
ng·h/mL

>  <AUC(0-t)>
3.81

$$$$

* * *

Experiment notes: Toxicokinetics in 13-week topical ocular rabbit study
Settings: male, New Zealand White, in vivo, topical or ocular, 50 mg/mL/occasion, male rabbits, 50 mg/mL, 6 daily doses, Week 4, after the first daily dose

>  <Compound>
Cc1ccccc1OCC(=O)N[C@@H](CC(C)C)C(=O)N[C@@H](Cc1ccc(OC(=O)N2CCC(C(N)=O)CC2)cc1)C(=O)O [GW559090]

>  <Unit spec>
min

>  <Tmax>
4.98

$$$$

* * *

Experiment notes: Toxicokinetics in 13-week topical ocular rabbit study
Settings: female, New Zealand White, in vivo, topical or ocular, 50 mg/mL/occasion, female rabbits, 50 mg/mL, 12 daily doses, Day 1, after the first daily dose
Measure: Tmax (min)

>  <Smiles input>
Cc1ccccc1OCC(=O)N[C@@H](CC(C)C)C(=O)N[C@@H](Cc1ccc(OC(=O)N2CCC(C(N)=O)CC2)cc1)C(=O)O

>  <Observed result>
4.98

$$$$

* * *

Experiment notes: Toxicokinetics in 13-week topical ocular rabbit study
Settings: male, New Zealand White, in vivo, topical or ocular, 50 mg/mL/occasion, male rabbits, 50 mg/mL, 12 daily doses, Week 14, read-out: AUC0-24

>  <Compound>
Cc1ccccc1OCC(=O)N[C@@H](CC(C)C)C(=O)N[C@@H](Cc1ccc(OC(=O)N2CCC(C(N)=O)CC2)cc1)C(=O)O [GW559090]

>  <AUC(0-t) [ng·h/mL]>
235

$$$$

* * *

Experiment notes: Toxicokinetics in 13-week topical ocular dog study
Settings: male, beagle, in vivo, topical or ocular, 30 mg/mL/occasion, male dogs, 30 mg/mL, 6 daily doses, Day 1, read-out: AUC0-1

>  <Compound>
Cc1ccccc1OCC(=O)N[C@@H](CC(C)C)C(=O)N[C@@H](Cc1ccc(OC(=O)N2CCC(C(N)=O)CC2)cc1)C(=O)O [GW559090]

>  <AUC(0-t)>
3.82 ng·h/mL

$$$$

* * *

Experiment notes: Toxicokinetics in 13-week topical ocular rabbit study
Settings: male, New Zealand White, in vivo, topical or ocular, 30 mg/mL/occasion, male rabbits, 30 mg/mL, 6 daily doses, Week 4, after the first daily dose
Measure: Cmax (ng/mL)

>  <Smiles input>
Cc1ccccc1OCC(=O)N[C@@H](CC(C)C)C(=O)N[C@@H](Cc1ccc(OC(=O)N2CCC(C(N)=O)CC2)cc1)C(=O)O

>  <Unit spec>
ng/mL

>  <Observed result>
51.4

$$$$

* * *

Experiment notes: PK study in rabbits, ocular tissue concentrations (LC-MS/MS)
Format: in vivo, New Zealand White rabbits
Settings: male, New Zealand White, rabbit, conjunctiva, topical; at 30 minutes; 40 μL (50 mg/mL) GW559090A; read-out: Conjunctival tissue concentration
Measure: concentration at 30 min

>  <Molecule>
Cc1ccccc1OCC(=O)N[C@@H](CC(C)C)C(=O)N[C@@H](Cc1ccc(OC(=O)N2CCC(C(N)=O)CC2)cc1)C(=O)O [GW559090]

>  <Observed result>
> 3000 ng/mL

$$$$

* * *

Experiment notes: Toxicokinetics in 13-week topical ocular dog study
Settings: male, beagle, in vivo, topical or ocular, 50 mg/mL/occasion, male dogs, 50 mg/mL, 6 daily doses, Day 1, read-out: AUC0-24

>  <Smiles input>
Cc1ccccc1OCC(=O)N[C@@H](CC(C)C)C(=O)N[C@@H](Cc1ccc(OC(=O)N2CCC(C(N)=O)CC2)cc1)C(=O)O

>  <AUC(0-t) / ng·h/mL>
110

$$$$

* * *

Experiment notes: Toxicokinetics in 13-week topical ocular rabbit study
Settings: male, New Zealand White, in vivo, topical or ocular, 50 mg/mL/occasion, male rabbits, 50 mg/mL, 12 daily doses, Week 14, read-out: AUC0-1
Measure: AUC(0-t) (ng·h/mL)

>  <Smiles input>
Cc1ccccc1OCC(=O)N[C@@H](CC(C)C)C(=O)N[C@@H](Cc1ccc(OC(=O)N2CCC(C(N)=O)CC2)cc1)C(=O)O

>  <Measure>
AUC(0-t)

>  <Observed result>
19.6

$$$$

* * *

Experiment notes: Toxicokinetics in 13-week topical ocular rabbit study
Settings: female, New Zealand White, in vivo, topical or ocular, 50 mg/mL/occasion, female rabbits, 50 mg/mL, 6 daily doses, Day 1, after the first daily dose

>  <Smiles input>
Cc1ccccc1OCC(=O)N[C@@H](CC(C)C)C(=O)N[C@@H](Cc1ccc(OC(=O)N2CCC(C(N)=O)CC2)cc1)C(=O)O

>  <Tmax>
4.98 min

$$$$

* * *

Experiment notes: Toxicokinetics in 13-week topical ocular dog study
Settings: both sexes, Beagle, in vivo, topical or ocular, 50 mg/mL/occasion, dogs, males and females combined, 50 mg/mL/occasion 12 times a day, Week 13, read-out: Estimated AUC0-24 at NOAEL
Measure: Estimated AUC0-24 (ng·h/mL)

>  <Molecule>
Cc1ccccc1OCC(=O)N[C@@H](CC(C)C)C(=O)N[C@@H](Cc1ccc(OC(=O)N2CCC(C(N)=O)CC2)cc1)C(=O)O [GW559090]

>  <Observed result>
134

$$$$

* * *

Experiment notes: Toxicokinetics in 13-week topical ocular dog study
Settings: female, beagle, in vivo, topical or ocular, 50 mg/mL/occasion, female dogs, 50 mg/mL, 12 daily doses, Week 13
Measure: Tmax (min)

>  <Smiles input>
Cc1ccccc1OCC(=O)N[C@@H](CC(C)C)C(=O)N[C@@H](Cc1ccc(OC(=O)N2CCC(C(N)=O)CC2)cc1)C(=O)O

>  <Measure>
Tmax

>  <Unit spec>
min

>  <Observed result>
15

$$$$

* * *

Experiment notes: Toxicokinetics in 13-week topical ocular rabbit study
Settings: female, New Zealand White, in vivo, topical or ocular, 50 mg/mL/occasion, female rabbits, 50 mg/mL, 12 daily doses, Week 14, read-out: AUC0-1
Method: GW559090A was given to New Zealand White Rabbits by topical ocular administration for 13 weeks. Animals were dosed six or twelve times per day, with one hour between doses. Treatment groups were: (1) vehicle (12 times a day), (2) 30 mg/mL/occasion given six times a day, (3) 50 mg/mL/occasion given six times a day, or (4) 50 mg/mL/occasion, given 12 times a day. […]
Measure: AUC(0-t) (ng·h/mL)

>  <Smiles input>
Cc1ccccc1OCC(=O)N[C@@H](CC(C)C)C(=O)N[C@@H](Cc1ccc(OC(=O)N2CCC(C(N)=O)CC2)cc1)C(=O)O

>  <Observed result>
35.5

$$$$

* * *

Experiment notes: Toxicokinetics in 13-week topical ocular rabbit study
Settings: male, New Zealand White, in vivo, topical or ocular, 50 mg/mL/occasion, male rabbits, 50 mg/mL, 6 daily doses, Week 13, read-out: AUC0-1

>  <Smiles input>
Cc1ccccc1OCC(=O)N[C@@H](CC(C)C)C(=O)N[C@@H](Cc1ccc(OC(=O)N2CCC(C(N)=O)CC2)cc1)C(=O)O

>  <AUC(0-t)>
17.6 ng·h/mL

$$$$

* * *

Experiment notes: Toxicokinetics in 13-week topical ocular rabbit study
Settings: female, New Zealand White, in vivo, topical or ocular, 30 mg/mL/occasion, female rabbits, 30 mg/mL, 6 daily doses, Week 13, after the first daily dose
Procedure: GW559090A was given to New Zealand White Rabbits by topical ocular administration for 13 weeks. Animals were dosed six or twelve times per day, with one hour between doses. Treatment groups were: (1) vehicle (12 times a day), (2) 30 mg/mL/occasion given six times a day, (3) 50 mg/mL/occasion given six times a day, or (4) 50 mg/mL/occasion, given 12 times a day. […]
Measure: Cmax (ng/mL)

>  <Smiles input>
Cc1ccccc1OCC(=O)N[C@@H](CC(C)C)C(=O)N[C@@H](Cc1ccc(OC(=O)N2CCC(C(N)=O)CC2)cc1)C(=O)O

>  <Observed result>
23.5

$$$$
